Sequence of the target: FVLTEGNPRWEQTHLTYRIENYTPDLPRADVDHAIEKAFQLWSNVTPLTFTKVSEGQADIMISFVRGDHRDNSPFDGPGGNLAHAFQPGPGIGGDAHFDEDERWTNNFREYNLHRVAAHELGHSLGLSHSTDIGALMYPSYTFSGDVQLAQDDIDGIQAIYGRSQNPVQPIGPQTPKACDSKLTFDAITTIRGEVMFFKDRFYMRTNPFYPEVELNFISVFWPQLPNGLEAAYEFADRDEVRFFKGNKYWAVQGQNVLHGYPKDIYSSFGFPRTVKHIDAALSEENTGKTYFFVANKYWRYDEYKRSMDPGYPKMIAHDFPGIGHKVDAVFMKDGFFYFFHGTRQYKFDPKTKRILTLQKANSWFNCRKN
Answer each item with its documented IC50.
Numbers only, in µM.

Look over these answered cases.
                                   molecule  readout_value
0  O=C(O)[C@@H]1[C@@H](Cn2nnc3ccc(C(F)(F)F)cc3c2=O)CC[C@H]1C(=O)c1ccc(SCC2CCOCC2)cc1 (single isomer, unassigned)             11
1  O=C(O)[C@H]1[C@H](Cn2nnc3ccccc3c2=O)CC[C@@H]1C(=O)c1ccc(OCC2CCOCC2)cc1 (stereo in doubt)             26

Now for a further molecule.
Task: Retrieve IC50 measured for O=C(O)[C@@H]1[C@@H](Cn2nnc3ccc(C(F)(F)F)cc3c2=O)CC[C@H]1C(=O)c1ccc(OCCC2CCOCC2)cc1 (single isomer, unassigned) and print it.
Result: 27

----------
Below are pIC50 values measured for MMP-10 (Homo sapiens).
One number for each entry, as −log10 of the molar value.

In [3]: df
Out[3]:
                                   molecule  experimental_endpoint  readout_value
0  Cc1ccc2nnn(C[C@H]3CC[C@@H](C(=O)c4ccc(OCCC5CCOCC5)cc4)[C@@H]3C(=O)O)c(=O)c2c1 (single isomer, unassigned)                  pIC50           7.51
1  O=C(O)[C@@H]1[C@@H](Cn2nnc3ccc(C(F)(F)F)cc3c2=O)CC[C@H]1C(=O)c1ccc(OCCC2CCOCC2)cc1 (single isomer, unassigned)                  pIC50           7.74
2  O=C(O)[C@H]1[C@H](Cn2nnc3ccccc3c2=O)CC[C@@H]1C(=O)c1ccc(OCCC2CCOCC2)cc1 (stereo in doubt)                  pIC50           6.77

Now for a further molecule.
Task: Retrieve pIC50 measured for O=C(O)[C@@H]1[C@@H](Cn2nnc3ccccc3c2=O)CC[C@H]1C(=O)c1ccc(OCCC2CCOCC2)cc1 (single isomer, unassigned) and print it.
Result: 7.89

----------
target: human macrophage elastase (HME/hMMP-12) (Homo sapiens, UniProt P39900); construct: 0.5 nM HME; purchased R&D Systems 917-MP; experiment: In vitro HME inhibition test (standard or high-sensitivity); type: biochemical; conditions: standard or high-sensitivity HME inhibition test; read-out: HME/hMMP-12 IC50
Sequence (P39900 106-470): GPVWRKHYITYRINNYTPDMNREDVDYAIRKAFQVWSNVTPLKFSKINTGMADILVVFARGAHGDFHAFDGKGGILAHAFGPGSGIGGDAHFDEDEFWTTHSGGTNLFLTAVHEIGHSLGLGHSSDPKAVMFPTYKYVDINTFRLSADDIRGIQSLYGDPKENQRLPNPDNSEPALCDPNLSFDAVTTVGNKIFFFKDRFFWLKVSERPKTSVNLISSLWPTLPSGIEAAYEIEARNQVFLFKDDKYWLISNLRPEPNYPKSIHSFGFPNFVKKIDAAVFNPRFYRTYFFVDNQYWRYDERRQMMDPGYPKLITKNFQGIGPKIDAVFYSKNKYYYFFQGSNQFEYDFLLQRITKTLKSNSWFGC
Answer each item with its documented IC50.
One number for each entry, in pM.

Look over these answered cases.
                                   molecule  experimental_endpoint  readout_value
0  Cc1ccc2nnn(C[C@@H]3CC[C@H](C(=O)c4ccc(OCC5CCOCC5)cc4)[C@H]3C(=O)O)c(=O)c2c1 (racemic)                   IC50            170
1  Cc1ccc2nnn(C[C@H]3CC[C@@H](C(=O)c4ccc(OCC5CCOCC5)cc4)[C@@H]3C(=O)O)c(=O)c2c1 (single isomer, unassigned) [Example 17]                   IC50             30

Now for a further molecule.
Task: Name the value of IC50 reported for Cc1ccc2nnn(C[C@H]3CC[C@@H](C(=O)c4ccc(OCCC5CCOCC5)cc4)[C@@H]3C(=O)O)c(=O)c2c1 (single isomer, unassigned) [Example 20] when tested on human macrophage elastase (HME/hMMP-12) (Homo sapiens, UniProt P39900).
Result: 53

----------
target: human macrophage elastase (HME/hMMP-12) (Homo sapiens, UniProt P39900); construct: 0.5 nM HME; purchased R&D Systems 917-MP; experiment: In vitro HME inhibition test (standard or high-sensitivity); format: biochemical; details: standard or high-sensitivity HME inhibition test; read-out: HME/hMMP-12 IC50
Answer each item with its documented IC50.

Field: IC50. Fill in for each record below.
1. O=C(O)[C@H]1[C@H](Cn2nnc3ccc(C(F)(F)F)cc3c2=O)CC[C@@H]1C(=O)c1ccc(OCCC2CCOCC2)cc1 (stereo in doubt)
2. O=C(O)[C@@H]1[C@@H](Cn2nnc3ccc(C(F)(F)F)cc3c2=O)CC[C@H]1C(=O)c1ccc(SCC2CCOCC2)cc1 (single isomer, unassigned) [Example 14]
3. Cc1ccc2nnn(C[C@H]3CC[C@@H](C(=O)c4ccc(OCCC5CCOCC5)cc4)[C@@H]3C(=O)O)c(=O)c2c1 (single isomer, unassigned) [Example 21]

Result:
0.021 nM
10 nM
78 nM

----------
molecular target: human macrophage elastase (HME/hMMP-12) (Homo sapiens, UniProt P39900); construct: 0.5 nM HME; purchased R&D Systems 917-MP; experiment: In vitro HME inhibition test (standard or high-sensitivity); type: biochemical; conditions: standard or high-sensitivity HME inhibition test; read-out: HME/hMMP-12 IC50
experimental.endpoint: log10 of IC50 (log10 of the value in nM)
// units: nM (pre-log); metric: IC50; scale: log10

Look over these answered cases.
compound	log10 of IC50
O=C(O)[C@@H]1[C@@H](Cn2nnc3ccc(C(F)(F)F)cc3c2=O)CC[C@H]1C(=O)c1ccc(OCCC2CCOCC2)cc1 (stereo in doubt) [Example 12]	1.95
O=C(O)[C@H]1[C@H](Cn2nnc3ccccc3c2=O)CC[C@@H]1C(=O)c1ccc(OCC2CCOCC2)cc1 (stereo in doubt)	-1.40
Cc1ccc2nnn(C[C@@H]3CC[C@H](C(=O)c4ccc(OCCC5CCOCC5)cc4)[C@H]3C(=O)O)c(=O)c2c1 (racemic)	-0.92
O=C(O)[C@H]1[C@H](Cn2nnc3ccc(C(F)(F)F)cc3c2=O)CC[C@@H]1C(=O)c1ccc(OCC2CCOCC2)cc1 (racemic)	-1.51
O=C(O)[C@H]1[C@H](Cn2nnc3ccccc3c2=O)CC[C@@H]1C(=O)c1ccc(OCCC2CCOCC2)cc1 (stereo in doubt)	-0.43

Field: log10 of IC50. Fill in for each record below.
1. O=C(O)[C@@H]1[C@@H](Cn2nnc3ccccc3c2=O)CC[C@H]1C(=O)c1ccc(OCCC2CCOCC2)cc1 (single isomer, unassigned) [Example 5]
2. O=C(O)[C@@H]1[C@@H](Cn2nnc3ccccc3c2=O)CC[C@H]1C(=O)c1ccc(OCC2CCOCC2)cc1 (stereo in doubt)

Result:
[-1.07, -1.15]

Field: log10 of IC50. Fill in for each record below.
1. O=C(O)[C@@H]1[C@@H](Cn2nnc3ccc(C(F)(F)F)cc3c2=O)CC[C@H]1C(=O)c1ccc(OCCC2CCOCC2)cc1 (single isomer, unassigned) [Example 11]
2. O=C(O)[C@H]1[C@H](Cn2nnc3ccc(C(F)(F)F)cc3c2=O)CC[C@@H]1C(=O)c1ccc(SCC2CCOCC2)cc1 (racemic)
3. O=C(O)[C@@H]1[C@@H](Cn2nnc3ccc(C(F)(F)F)cc3c2=O)CC[C@H]1C(=O)c1ccc(SCC2CCOCC2)cc1 (single isomer, unassigned) [Example 15]

Result:
-0.72
-0.32
-1.59

Field: log10 of IC50. Fill in for each record below.
1. O=C(O)[C@@H]1[C@@H](Cn2nnc3ccccc3c2=O)CC[C@H]1C(=O)c1ccc(OCCC2CCOCC2)cc1 (stereo in doubt) [Example 6]
2. Cc1ccc2nnn(C[C@H]3CC[C@@H](C(=O)c4ccc(OCC5CCOCC5)cc4)[C@@H]3C(=O)O)c(=O)c2c1 (single isomer, unassigned) [Example 18]

Result:
[1.90, 0.52]

----------
test system: rat hepatocytes; test: Hepatocyte assay for determination of metabolic stability; details: after incubation with rat hepatocytes
experimental.endpoint: CLblood (calculated blood clearance, well-stirred)
The reply should consist of the numeric value with the unit placed after it.

In [3]: df
Out[3]:
                                   compound   readout_value
0  O=C(O)[C@@H]1[C@@H](Cn2nnc3ccccc3c2=O)CC[C@H]1C(=O)c1ccc(OCCC2CCOCC2)cc1 (racemic) [Example 5]  14.5 mL/min/kg
1  O=C(O)[C@@H]1[C@@H](Cn2nnc3ccc(C(F)(F)F)cc3c2=O)CC[C@H]1C(=O)c1ccc(OCCC2CCOCC2)cc1 (racemic) [Example 11]     5 mL/min/kg
2  O=C(O)[C@@H]1[C@@H](Cn2nnc3ccccc3c2=O)CC[C@H]1C(=O)c1ccc(OCC2CCOCC2)cc1 (stereo in doubt) [Example 2]  7.33 mL/min/kg
3  O=C(O)[C@H]1[C@H](Cn2nnc3ccccc3c2=O)CC[C@@H]1C(=O)c1ccc(OCC2CCOCC2)cc1 (stereo in doubt) [Example 1]    17 mL/min/kg
4  O=C(O)[C@@H]1[C@@H](Cn2nnc3ccc(C(F)(F)F)cc3c2=O)CC[C@H]1C(=O)c1ccc(SCC2CCOCC2)cc1 (racemic) [Example 15]  2.67 mL/min/kg

Now for a further compound.
Task: Retrieve CLblood (calculated blood clearance, well-stirred) measured for Cc1ccc2nnn(C[C@H]3CC[C@@H](C(=O)c4ccc(OCCC5CCOCC5)cc4)[C@@H]3C(=O)O)c(=O)c2c1 (racemic) [Example 20] and print it.
Result: 12.8 mL/min/kg
